- System: SERT
- assay_explanation: Baboon PET imaging: brain uptake, kinetic analysis and SERT parameters
- Type: in vivo
- condition_set: baboons, region encompassing the entire brain
measured_parameter: Total brain uptake at 45 min

1. CN(C)Cc1ccccc1Sc1ccc(I)cc1N [[^11C]ADAM]    0.017±0.001 % ID g^−1
2. CN([11CH3])Cc1ccccc1Sc1ccc(CF)cc1N [[^11C]AFM]    0.016±0.002 % ID g^−1
3. CN(C)Cc1ccccc1Sc1ccc(C#N)cc1N [[^11C]DASB]    0.013±0.002 % ID g^−1
4. CN(C)Cc1ccccc1Sc1ccc(Br)cc1N [[^11C]DAPA]    0.018±0.002 % ID g^−1
5. [11CH3]Sc1ccc([C@H]2CN3CCC[C@H]3c3ccccc32)cc1 [[^11C]McN 5652]    0.016±0.002 % ID g^−1

###

- Tested on: SERT
- assay_explanation: Baboon PET imaging: brain uptake, kinetic analysis and SERT parameters
- Assay type: in vivo
- condition_set: one-tissue compartment model; baboons, mean ± SD of four experiments
measured_parameter: K2 Striatum (min⁻¹)

1) CN(C)Cc1ccccc1Sc1ccc(Br)cc1N [[^11C]DAPA]    0.017
2) [11CH3]Sc1ccc([C@H]2CN3CCC[C@H]3c3ccccc32)cc1 [[^11C]McN 5652]    0.021
3) CN([11CH3])Cc1ccccc1Sc1ccc(CF)cc1N [[^11C]AFM]    0.025
4) CN(C)Cc1ccccc1Sc1ccc(C#N)cc1N [[^11C]DASB]    0.040
5) CN(C)Cc1ccccc1Sc1ccc(I)cc1N [[^11C]ADAM]    0.025

###

Known Clearance of a selection of molecules
- assay_explanation: Baboon PET study: plasma analysis / input function of parent compound
- Type: in vivo
- condition_set: male, monkey, arterial plasma, iv; baboons, mean ± SD of four experiments
- Experimental: PET imaging protocol: PET experiments (n=20) were performed at Columbia University. Two adult male baboons (baboon A and B) were studied twice with each of the 5 radioligands (4 experiments per radioligand). […] Experiments were performed according to protocols approved by the Columbia-Presbyterian Medical Center Institutional Animal Care and Use Committee. […] Vital signs were monitored every 10 minutes and the temperature was kept constant at 37° C. with heated water blankets. […]
measured_parameter: Clearance (mL/min)

1. CN(C)Cc1ccccc1Sc1ccc(Br)cc1N [[^11C]DAPA]    967
2. CN(C)Cc1ccccc1Sc1ccc(I)cc1N [[^11C]ADAM]    1120
3. CN(C)Cc1ccccc1Sc1ccc(C#N)cc1N [[^11C]DASB]    1400

###

Known K1 Cingulate Cortex of a selection of compounds
- System: SERT
- assay_explanation: Baboon PET imaging: brain uptake, kinetic analysis and SERT parameters
- Type: in vivo
- condition_set: one-tissue compartment model; baboons, mean ± SD of four experiments
measured_parameter: K1 Cingulate Cortex (mL/g/min)

1) CN(C)Cc1ccccc1Sc1ccc(Br)cc1N [[^11C]DAPA]    0.91
2) [11CH3]Sc1ccc([C@H]2CN3CCC[C@H]3c3ccccc32)cc1 [[^11C]McN 5652]    1.01
3) CN([11CH3])Cc1ccccc1Sc1ccc(CF)cc1N [[^11C]AFM]    1.48
4) CN(C)Cc1ccccc1Sc1ccc(C#N)cc1N [[^11C]DASB]    1.26
5) CN(C)Cc1ccccc1Sc1ccc(I)cc1N [[^11C]ADAM]    1.20
